# target: SNX27, Q96L92
# experiment description: holdup assay
# Design: key: below the threshold = too weak to quantify, mostly under pKd 3.1 to 4
# measurement setup: plain residues with an end cap or a label only (N-terminal biotin on a linker: ado-ado)
quantity name: pKd
Write the value as a bare number.

Exam item: Please give the measured pKd for this binder: HSGYRLNDYV [CLDN14, O95500]
Marked response: 3.72

Exam item: Please give the measured pKd for this binder: QGLAERISVL [PRKD2, Q9BZL6]
Marked response: 4.78

Exam item: Please give the measured pKd for this binder: PKRSFIESNV [TANC1, Q9C0D5]
Marked response: 5.51

Exam item: Please give the measured pKd for this binder: HLRARKSEWV [GJD4, Q96KN9]
Marked response: 4.38

Exam item: Please give the measured pKd for this binder: PEYLGLDVPV [ERBB2, P04626]
Marked response: 3.94

Exam item: Please give the measured pKd for this binder: EVEEFPETSV [TRPV3, Q8NET8]
Marked response: 5.83

Exam item: Please give the measured pKd for this binder: QSARLWETSI [ADAM22, Q9P0K1]
Marked response: 5.41

Exam item: Please give the measured pKd for this binder: TSQESEDTYL [TBC1D10A, Q9BXI6]
Marked response: 5.27
